// values below are reported melting point
settings: a range is the spread between reports

Enquiry: Tell me its melting point given C[Si](C)(C)[Si](C)(C)C as the entry.
Return: 12 to 13.5 °C

Enquiry: Tell me its melting point given NC(=O)c1cccc2ccccc12 as the entry.
Return: 206 to 208 °C

Enquiry: Tell me its melting point given COC(=O)c1ccc(Cl)cc1 as the entry.
Return: 43 to 44 °C

Enquiry: Tell me its melting point given Cc1ccc(C)c(C(=O)O)c1 as the entry.
Return: 132 to 134 °C

Enquiry: Tell me its melting point given C1CCCC1 as the entry.
Return: -94 to -93.8 °C

###

conditions: a range is the spread between reports
// values below are reported melting point

C1CN2CCN1CC2 158 to 159 °C
O=[N+]([O-])c1cc(Br)ccc1Br 82 to 85.5 °C
CCOc1ccc(CC(=O)O)cc1 88.5 to 89 °C
Cc1ccc(S(=O)(=O)Cl)cc1 68 to 71 °C
Cc1cccc(C)c1Cl -36 to -35 °C
O=C1c2ccccc2C(=O)c2cc(Cl)ccc21 209 to 211 °C

Enquiry: Tell me its melting point given COc1cccc(C(=O)NN)c1 as the entry.
Return: 92 to 94 °C

Enquiry: Tell me its melting point given C1CCCCCCCCCCCCCC1 as the entry.
Return: 61.3 to 62 °C

Enquiry: Tell me its melting point given CC1CC1 as the entry.
Return: -177 °C

Enquiry: Tell me its melting point given N#CCc1cccc(Cl)c1 as the entry.
Return: 11.5 to 12 °C

Enquiry: Tell me its melting point given O=C1CCC1 as the entry.
Return: -52 to -50.9 °C

Enquiry: Tell me its melting point given Cc1ccccc1-c1ccccc1 as the entry.
Return: -0.2 to 0 °C

Enquiry: Tell me its melting point given O=C(Cl)c1ccccc1Br as the entry.
Return: 10 to 11 °C

Enquiry: Tell me its melting point given CC(C)=CC(=O)O as the entry.
Return: 67 to 69.5 °C

Enquiry: Tell me its melting point given O=C(O)Cc1ccccc1O as the entry.
Return: 146 to 149 °C

Enquiry: Tell me its melting point given Oc1c(Br)cc(Br)c2cccnc12 as the entry.
Return: 196 to 201 °C

###

// values below are reported melting point
details: a range is the spread between reports

MOLECULE	REPORTED_VALUE
O=C(O)COc1ccccc1	98.5 to 100 °C

For the next question, use this molecule.
Enquiry: Tell me its melting point given O=C(c1ccccc1)c1ccc(Cl)cc1 as the entry.
Return: 76 to 77.5 °C

###

// values below are reported melting point
conditions: a range is the spread between reports

Examples with answers:
COMPOUND	melting point
c1ccc(CSSCc2ccccc2)cc1	70 to 71.5 °C
CC12CCC3c4ccc(O)cc4CCC3C1CCC2=O (centres undefined)	255 to 259 °C
OC1c2ccccc2-c2ccccc21	154 to 156 °C
COP(=O)(OC)OC(=CCl)c1cc(Cl)c(Cl)cc1Cl	96 to 97.5 °C

Enquiry: Tell me its melting point given CC(C)(C)c1cccc(C(C)(C)C)c1O as the entry.
Return: 36.5 to 39 °C

Enquiry: Tell me its melting point given COc1ccc(OC)c(C(C)=O)c1 as the entry.
Return: 19 to 20 °C

Enquiry: Tell me its melting point given C=C(C)[C@@H]1CCC2=CC(=O)C[C@@H](C)[C@]2(C)C1 as the entry.
Return: 36 to 36.9 °C

Enquiry: Tell me its melting point given O=C1Nc2ccccc2C1=O as the entry.
Return: 200 to 203 °C

Enquiry: Tell me its melting point given Clc1ccc(I)cc1 as the entry.
Return: 54 to 57 °C

Enquiry: Tell me its melting point given COP(=S)(OC)Oc1ccc(SC)c(C)c1 as the entry.
Return: 7 to 7.5 °C
